Where do these numbers come from? They come from patent US20170224836A1.

Target: T1, human CDH6 on cells (human, UniProt P55285 54-790)
T1 sequence: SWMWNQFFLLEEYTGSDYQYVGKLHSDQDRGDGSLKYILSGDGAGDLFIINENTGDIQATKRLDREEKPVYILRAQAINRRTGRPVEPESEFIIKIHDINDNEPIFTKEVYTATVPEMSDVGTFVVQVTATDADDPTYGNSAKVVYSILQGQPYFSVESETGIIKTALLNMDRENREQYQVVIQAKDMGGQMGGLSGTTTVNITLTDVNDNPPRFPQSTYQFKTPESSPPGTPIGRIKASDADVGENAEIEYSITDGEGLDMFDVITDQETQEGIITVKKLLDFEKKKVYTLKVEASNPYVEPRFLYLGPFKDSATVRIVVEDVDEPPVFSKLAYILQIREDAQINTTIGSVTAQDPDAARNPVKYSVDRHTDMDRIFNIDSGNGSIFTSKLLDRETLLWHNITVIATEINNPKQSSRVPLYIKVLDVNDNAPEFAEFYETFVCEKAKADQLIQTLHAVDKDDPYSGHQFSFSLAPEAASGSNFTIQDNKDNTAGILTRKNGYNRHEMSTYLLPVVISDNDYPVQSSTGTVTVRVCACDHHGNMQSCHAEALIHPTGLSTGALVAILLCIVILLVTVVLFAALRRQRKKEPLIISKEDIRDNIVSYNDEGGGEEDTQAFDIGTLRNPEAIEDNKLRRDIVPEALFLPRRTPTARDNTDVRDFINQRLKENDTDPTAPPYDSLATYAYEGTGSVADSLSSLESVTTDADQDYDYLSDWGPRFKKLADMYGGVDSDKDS
Experiment: cell-based or functional assay
measure: percent inhibition at 1.22 nM ADC, OVCAR3 cells (%)

- NOV0712-SMCC-DM1 (antibody, human IgG1, kappa, V domains shown, SMCC-DM1 on primary amines, sites not stated) VH: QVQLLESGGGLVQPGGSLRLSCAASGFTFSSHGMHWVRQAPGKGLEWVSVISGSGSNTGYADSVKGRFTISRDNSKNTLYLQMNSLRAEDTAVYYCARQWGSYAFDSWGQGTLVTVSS VL: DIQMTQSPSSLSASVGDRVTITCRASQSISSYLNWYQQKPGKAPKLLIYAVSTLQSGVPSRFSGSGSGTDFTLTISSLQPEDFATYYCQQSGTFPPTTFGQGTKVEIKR: 87.6
- NOV0692-SMCC-DM1 (antibody, human IgG1, lambda, V domains shown, SMCC-DM1 on primary amines, sites not stated) VH: QVQLVESGGGLVKPGGSLRLSCAASGFTFSRYWMDWVRQAPGKGLEWVGRIKSKANGGITDYAAPVKGRFTISRDDSKNTLYLQMNSLKTEDTAVYYCARGMTFLGIWGQGTLVTVSS VL: DIELTQPPSVSVSPGQTASITCSGDSIGSKYAQWYQQKPGQAPVLVIYYNSERPSGIPERFSGSNSGNTATLTISGTQAEDEADYYCQSWDGQSTIRVFGGGTKLTVLG: 88
- NOV0720-SMCC-DM1 (antibody, human IgG1, lambda, V domains shown, SMCC-DM1 on primary amines, sites not stated) VH: QVQLQQSGPGLVKPSQTLSLTCAISGDSVSSNSAGWNWIRQSPSRGLEWLGRIYYRSKWYNDYAVSVKSRITINPDTSKNQFSLQLNSVTPEDTAVYYCAREKYTVSFYDFFDYWGQGTLVTVSS VL: DIELTQPPSVSVSPGQTASITCSGDNIGSMTAHWYQQKPGQAPVLVIYDKNERPSGIPERFSGSNSGNTATLTISGTQAEDEADYYCQSWDDSYNSVVFGGGTKLTVLG: 80.7
- NOV0709-SMCC-DM1 (antibody, human IgG1, lambda, V domains shown, SMCC-DM1 on primary amines, sites not stated) VH: QVQLLESGGGLVQPGGSLRLSCAASGFTFSTYYMHWVRQAPGKGLEWVSVISSDGSFTFYADSVKGRFTISRDNSKNTLYLQMNSLRAEDTAVYYCARHGYGAFDYWGQGTLVTVSS VL: DIALTQPASVSGSPGQSITISCTGTSSDVGSYNYVSWYQQHPGKAPKLMIYYVSNRPSGVSNRFSGSKSGNTASLTISGLQAEDEADYYCASYTHQGSWVFGGGTKLTVLG: 46.9
- NOV0682-SMCC-DM1 (antibody, human IgG1, kappa, V domains shown, SMCC-DM1 on primary amines, sites not stated) VH: QVQLVESGGGLVKPGGSLRLSCAASGFTFSSYAISWVRQAPGKGLEWVGFIKSNADGYTTNYAAPVKGRFTISRDDSKNTLYLQMNSLKTEDTAVYYCARIRYFRNWDYWGQGTLVTVSS VL: DIQMTQSPSSLSASVGDRVTITCRASQTINSYLNWYQQKPGKAPKLLIYRASNLQSGVPSRFSGSGSGTDFTLTISSLQPEDFATYYCQQGDSSWTFGQGTKVEIKR: 61.8
